Tested on: HCV replicon
Assay: Replicon based assay of HCV replication inhibition (NPT ELISA)
Format: cell-based, Hepatitis C virus
Conditions: Hepatitis C virus, Huh-7, 72 h, Table III; Huh-7 HCV replicon-containing cells, three days; read-out: Activity
pEC50: −log10 of the molar value.
Recorded endpoint: pEC50

Example cases with answers are listed next.
# Compound, Observed
data = [
    ("CCCCCCCCOc1ccc(Nc2nc(-c3cncc(OC)c3)cs2)cc1C(F)(F)F", "5.00 to 6.00"),
    ("CCCCCCCCc1ccc(Nc2nc(-c3ccc4c(c3)NC(=O)CO4)cs2)cc1", "> 6.00"),
    ("CC(C)CCCC(C)CCOc1ccc(Nc2nc(-c3cccnc3)cs2)cc1C(F)(F)F (stereo not shown)", "> 6.00"),
    ("CCCCCCCCN(C)c1ccc(Nc2nc(Cc3ccc(F)cc3)cs2)cc1", "< 5.00"),
    ("N#Cc1ccc(-c2csc(Nc3ccc(OCCCC4CCCC4)c(C(F)(F)F)c3)n2)cn1", "> 6.00"),
    ("CCCCCOc1ccc(Nc2nc(Cc3ccc(OC)cc3)cs2)cc1C(F)(F)F", "5.00 to 6.00"),
]

Would you be so kind as to report pEC50 for each listed record?
1. CCCCCCCCN(C)c1ccc(Nc2nc(O)cs2)cc1C(F)(F)F
2. CCCCCCCCOc1ccc(Nc2nc(-c3cnc(N)c(C)c3)cs2)cc1C(F)(F)F
3. CCCCCCCCOc1ccc(Nc2nc(O)cs2)cc1C(F)(F)F
4. O=C(c1ccc(Nc2nc(-c3ccc(F)cc3)cs2)cc1C(F)(F)F)N1CCC2CCCCC2C1 (stereo not shown)
5. CCCCCCCCOc1ccc(Nc2nc(-c3ccc(N)nc3)cs2)cc1
6. CCCCCCCc1ccc(Nc2nc(-c3ccc4[nH]c(=O)oc4c3)cs2)cc1
7. CCCCCCCCOc1ccc(Nc2nccs2)cc1C(F)(F)F

["5.00 to 6.00", "> 6.00", "5.00 to 6.00", "< 5.00", "> 6.00", "> 6.00", "> 6.00"]

Below is a list of compounds. For each, state its recorded pEC50.
1. CCCCCCCCOc1ccc(Nc2nc(-c3cc4ccccc4o3)cs2)cc1C(F)(F)F
2. CCCCCCC(C)Oc1ccc(Nc2nc(-c3ccc(NC(C)=O)nc3)cs2)cc1C(F)(F)F (stereo not shown)
3. CCCCCCCCOc1ccc(Nc2nc(-c3cnc(NC(C)=O)c(C)c3)cs2)cc1
4. FC(F)(F)c1cc(Nc2nc(-c3cccnc3)cs2)ccc1OCCCN1CCOCC1
5. FC(F)(F)c1cc(Nc2nc(-c3cccnc3)cs2)ccc1N1CCC2CCCCC2C1 (stereo not shown)
6. CCCCCN(C)c1ccc(Nc2nc(-c3ccc(F)nc3)cs2)cc1C(F)(F)F
7. CCCCCOc1ccc(Nc2nc(-c3cncc(C(=O)O)c3)cs2)cc1C(F)(F)F
8. CCCCCCCCOc1ccc(Nc2nc(-c3ccc(NC(C)=O)nc3)cs2)cc1C(F)(F)F

1. > 6.00
2. > 6.00
3. 5.00 to 6.00
4. 5.00 to 6.00
5. > 6.00
6. > 6.00
7. > 6.00
8. > 6.00

For each of the compounds below, state pEC50.
1. CCCCCCCCOc1ccc(Nc2nc(-c3cnc(Cl)nc3)cs2)cc1
2. CCCCCCCCOc1ccc(Nc2nc(-c3ncccn3)cs2)cc1C(F)(F)F

> 6.00
> 6.00

Provenance of the data: patent US8088806B2
